- experiment-summary: Plasma pharmacokinetic parameters (LC-MS/MS)
- stated-conditions: human, plasma, oral, 600 mg, Total Ribociclib Cmax, Mean
property: Cmax (nM)
One number for each entry, in nM.

Exercise: Name the recorded Cmax of the item CN(C)C(=O)c1cc2cnc(Nc3ccc(N4CCNCC4)cn3)nc2n1C1CCCC1 in your answer.
Key: 2190

---

- experiment-summary: CNS penetration: total and unbound drug concentrations in tumor regions, CSF and plasma (LC-MS/MS, equilibrium dialysis);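 also: drug levels in patient tumor tissue from contrast-enhancing and non-enhancing regions sampled under MRI-guided neuronavigation, with plasma and CSF drawn during surgical resection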
- stated-conditions: human, non-enhancing tumor, oral, Total everolimus, MED, 5 mg QD 5 days
property: concentration at 5 days (nM)
Answers are plain numbers, in nM.

Exercise: Name the recorded concentration at 5 days of the item CO[C@H]1C[C@@H]2CC[C@@H](C)[C@@](O)(O2)C(=O)C(=O)N2CCCC[C@H]2C(=O)O[C@H]([C@H](C)C[C@@H]2CC[C@@H](OCCO)[C@H](OC)C2)CC(=O)[C@H](C)/C=C(\C)[C@@H](O)[C@@H](OC)C(=O)[C@H](C)C[C@H](C)/C=C/C=C/C=C/1C in your answer.
Key: 10.3
